Reported pIC50 values are given for each entry in this list.
TARGET OR SYSTEM: HIV-1 protease (Human immunodeficiency virus type 1 group M subtype B, UniProt P04585)
Construct: purified HIV-1 protease
TEST DETAILS: biochemical
Assay type: biochemical
RUN PARAMETERS: 0.5M NaCl, 50 mM MES pH 5.6, 2% DMSO, 37° C., 200 μM substrate
Quick note: pIC50 means taking -log10 of the concentration in moles per liter.

Before answering, review these 7 worked examples.
MOLECULE	TARGET OR SYSTEM	pIC50
CC(C)(C)N(CCCO)C(=O)c1ccccc1CCC(O)Cc1ccccc1C(=O)N(CCOCCN1CCOCC1)C(C)(C)c1ccccc1 (stereo not shown)	HIV-1 protease (Human immunodeficiency virus type 1 group M subtype B, UniProt P04585)	5.10
Cc1ccc(CCC(O)Cc2ccccc2C(=O)N(CCO)C2(C)CCCC2)c(C(=O)N(CCO)C(C)(C)C)c1 (stereo not shown)	HIV-1 protease (Human immunodeficiency virus type 1 group M subtype B, UniProt P04585)	6.14
Cc1ccc(CC(O)CCc2ccccc2C(=O)N(Cc2ccccc2)C(C)C)c(C(=O)N(CCO)C(C)(C)c2ccccc2)c1 (stereo not shown)	HIV-1 protease (Human immunodeficiency virus type 1 group M subtype B, UniProt P04585)	6.35
CC(C)(C)N(CCO)C(=O)c1ccccc1CCC(O)Cc1ccccc1C(=O)N(CCO)C(C)(C)c1ccc2ccccc2c1 (stereo not shown)	HIV-1 protease (Human immunodeficiency virus type 1 group M subtype B, UniProt P04585)	6.60
CC(C)(C)NC(=O)c1ccccc1CC(O)CSc1ccc(NC(=O)c2ccncc2)cc1C(=O)NC(C)(C)C (stereo not shown)	HIV-1 protease (Human immunodeficiency virus type 1 group M subtype B, UniProt P04585)	4.22
CC(C)(C)N(CCO)C(=O)c1ccccc1CCC(O)Cc1ccccc1C(=O)N(CCO)C12CCCCC1CCC2 (stereo not shown)	HIV-1 protease (Human immunodeficiency virus type 1 group M subtype B, UniProt P04585)	6.64
CC(C)(C)NC(=O)c1c(CC(O)CCc2ccccc2C(=O)N(CCO)C(C)(C)C)ccc2ccccc12 (stereo not shown)	HIV-1 protease (Human immunodeficiency virus type 1 group M subtype B, UniProt P04585)	5.62

Continue with the molecule presented below.
Q. Looking for the measured pIC50 of CC(C)(C)NC(=O)c1c(CCC(O)Cc2ccccc2C(=O)N(Cc2ncc[nH]2)C(C)(C)C)ccc2ccccc12 (stereo not shown) , can you help?
A. 6.09

----------
TARGET OR SYSTEM: HIV-1 protease (Human immunodeficiency virus type 1 group M subtype B, UniProt P04585)
Construct: purified HIV-1 protease
TEST DETAILS: biochemical
Type: biochemical
Listing of entries alongside the reported pIC50.
A value of pIC50 is the negative decimal logarithm of a concentration given in moles per litre.

MOLECULE	pIC50
CC(C)(C)N(CCO)C(=O)c1ccccc1CCC(O)Cc1ccccc1C(=O)N(CCO)C(C)(C)C (stereo not shown)	5.99
CCC1(N(CCO)C(=O)c2ccccc2CCC(O)Cc2ccc(C)cc2C(=O)N(CCC(O)CO)C(C)(C)c2ccccc2)CCCC1 (stereo not shown)	7.09
CC(C)(C)NC(=O)c1c(CCC(O)Cc2ccc3ccccc3c2C(=O)NC(C)(C)C)ccc2ccccc12 (single isomer, unassigned)	6.06

Please find the next molecule below.
Q. I am curious: what pIC50 value has been reported for CCC1(N(CCO)C(=O)c2ccccc2CCC(O)Cc2ccc(C)cc2C(=O)N(CCO)C(C)(C)c2ccc(O)cc2)CCCC1 (stereo not shown) ?
A. 7.20
